These measurements were taken from the supplement of paper PMC8149375.

System: ACHN
assay-comment: GI50 of drug in presence of dasatinib; higher = less potent
protocol-conditions: treatment: drug + dasatinib (fixed dose, not stated); 5 days
value-type: GI50 of drug (nM)

Worked examples, 2 molecules total:
>>> experimental_result("CCN(CC)CCCCNc1ncc2cc(-c3cc(OC)cc(OC)c3)c(NC(=O)NC(C)(C)C)nc2n1 + Cc1nc(Nc2ncc(C(=O)Nc3c(C)cccc3Cl)s2)cc(N2CCN(CCO)CC2)n1")
19.8
>>> experimental_result("CC(C)n1nc(-c2ccc3oc(N)nc3c2)c2c(N)ncnc21 [INK 128] + Cc1nc(Nc2ncc(C(=O)Nc3c(C)cccc3Cl)s2)cc(N2CCN(CCO)CC2)n1")
3.03

(a) Nc1nc(NCCNc2ncc(-n3ccnc3)c(-c3ccc(Cl)cc3Cl)n2)ccc1[N+](=O)[O-] + Cc1nc(Nc2ncc(C(=O)Nc3c(C)cccc3Cl)s2)cc(N2CCN(CCO)CC2)n1
(b) Cc1cc(Nc2cc(N3CCN(C)CC3)nc(/C=C/c3ccccc3)n2)n[nH]1.O=C(O)[C@H](O)[C@@H](O)C(=O)O [ENMD-2076] + Cc1nc(Nc2ncc(C(=O)Nc3c(C)cccc3Cl)s2)cc(N2CCN(CCO)CC2)n1
(c) CCC(=O)N1CCN(c2ccc(-n3c(=O)ccc4cnc5ccc(-c6cnc7ccccc7c6)cc5c43)cc2C(F)(F)F)CC1 [Torin 1] + Cc1nc(Nc2ncc(C(=O)Nc3c(C)cccc3Cl)s2)cc(N2CCN(CCO)CC2)n1
(d) O=C(NOC[C@H](O)CO)c1ccc(F)c(F)c1Nc1ccc(I)cc1F + Cc1nc(Nc2ncc(C(=O)Nc3c(C)cccc3Cl)s2)cc(N2CCN(CCO)CC2)n1
(e) Cc1ccc(F)c(NC(=O)Nc2ccc(-c3cccc4[nH]nc(N)c34)cc2)c1 [Linifanib (ABT-869)] + Cc1nc(Nc2ncc(C(=O)Nc3c(C)cccc3Cl)s2)cc(N2CCN(CCO)CC2)n1
Please order the records by their reported GI50 of drug, lowest number first. Please write the labels in the order that was asked for.
c, d, b, a, e

====

Reported minimum viability across doses by item:
System: A498
assay-comment: minimum viability across doses, drug alone, relative to DMSO (fraction); higher = less growth inhibition
protocol-conditions: treatment: drug alone; 5 days
Number only, no unit.

The recorded minimum viability across doses for `CC(C)(C)c1cc(/C=C(\C#N)C(N)=S)cc(C(C)(C)C)c1O` is 1.02

The recorded minimum viability across doses for `C[C@]1(O)C[C@@H](c2nc(-c3ccc4ccc(-c5ccccc5)nc4c3)c3c(N)nccn32)C1` is 0.972

The recorded minimum viability across doses for `CCc1cc(Nc2nccc(-c3c(-c4ccc(OC)c(C(=O)Nc5c(F)cccc5F)c4)nc4ccccn34)n2)c(OC)cc1N1CCC(N2CCN(S(C)(=O)=O)CC2)CC1` is 1.04

The recorded minimum viability across doses for CO[C@H]1C[C@@H]2CC[C@@H](C)[C@@](O)(O2)C(=O)C(=O)N2CCCC[C@H]2C(=O)O[C@H]([C@H](C)C[C@@H]2CC[C@@H](OCCO)[C@H](OC)C2)CC(=O)[C@H](C)/C=C(\C)[C@@H](O)[C@@H](OC)C(=O)[C@H](C)C[C@H](C)/C=C/C=C/C=C/1C [Everolimus (RAD001)] is 0.851

The recorded minimum viability across doses for `C[C@@H]1CCN(C(=O)CC#N)C[C@@H]1N(C)c1ncnc2[nH]ccc12` is 0.909

The recorded minimum viability across doses for `Nc1ccc(C(=O)Nc2cccc(-c3nc(N4CCOCC4)c4oc5ncccc5c4n3)c2)cn1` is 0.527

====

Reported GI50 of drug by item:
Tested on: SN12C
assay-comment: GI50 of drug in presence of dasatinib; higher = less potent
protocol-conditions: treatment: drug + dasatinib (fixed dose, not stated); 5 days

>>> experimental_result("CS(=O)(=O)CCNCc1ccc(-c2ccc3ncnc(Nc4ccc(OCc5cccc(F)c5)c(Cl)c4)c3c2)o1.Cc1ccc(S(=O)(=O)O)cc1.Cc1ccc(S(=O)(=O)O)cc1 [Lapatinib Ditosylate (Tykerb)] + Cc1nc(Nc2ncc(C(=O)Nc3c(C)cccc3Cl)s2)cc(N2CCN(CCO)CC2)n1")
"> 10 µM"
>>> experimental_result("CN(C)CC[C@H](CSc1ccccc1)Nc1ccc(S(=O)(=O)NC(=O)c2ccc(N3CCN(Cc4ccccc4-c4ccc(Cl)cc4)CC3)cc2)cc1[N+](=O)[O-] [ABT-737] + Cc1nc(Nc2ncc(C(=O)Nc3c(C)cccc3Cl)s2)cc(N2CCN(CCO)CC2)n1")
"> 10 µM"

The recorded GI50 of drug for CNC(=O)Nc1ccc(-c2nc(N3CC4CCC(C3)O4)c3cnn(C4CCC5(CC4)OCCO5)c3n2)cc1 + Cc1nc(Nc2ncc(C(=O)Nc3c(C)cccc3Cl)s2)cc(N2CCN(CCO)CC2)n1 is 0.0323 µM

The recorded GI50 of drug for COc1cc2c(N3CCN(C(=O)Nc4ccc(OC(C)C)cc4)CC3)ncnc2cc1OCCCN1CCCCC1 [Tandutinib (MLN518)] + Cc1nc(Nc2ncc(C(=O)Nc3c(C)cccc3Cl)s2)cc(N2CCN(CCO)CC2)n1 is > 10 µM

====

Tested on: TK-10
assay-comment: AUC of dose-response viability curve, drug + dasatinib, normalised to DMSO (arbitrary (AUC of normalised viability)); higher = less growth inhibition
protocol-conditions: treatment: drug + dasatinib (fixed dose, not stated); 5 days
value-type: AUC of dose-response viability curve
Number only, no unit.

The recorded AUC of dose-response viability curve for CC[C@H](CO)Nc1nc(NCc2ccccc2)c2ncn(C(C)C)c2n1 [Roscovitine (Seliciclib, CYC202)] + Cc1nc(Nc2ncc(C(=O)Nc3c(C)cccc3Cl)s2)cc(N2CCN(CCO)CC2)n1 [dasatinib] is 2.74

The recorded AUC of dose-response viability curve for N#Cc1c(O)c2c(-c3ccc(-c4ccccc4O)cc3)csc2[nH]c1=O + Cc1nc(Nc2ncc(C(=O)Nc3c(C)cccc3Cl)s2)cc(N2CCN(CCO)CC2)n1 [dasatinib] is 2.78

The recorded AUC of dose-response viability curve for Nc1ccc(-c2ccc3ncc4ccc(=O)n(-c5cccc(C(F)(F)F)c5)c4c3c2)cn1 [Torin 2] + Cc1nc(Nc2ncc(C(=O)Nc3c(C)cccc3Cl)s2)cc(N2CCN(CCO)CC2)n1 [dasatinib] is 0.828

The recorded AUC of dose-response viability curve for CCn1nnc2c(N3CCOCC3)nc(-c3ccc(NC(=O)Nc4ccc(C(=O)N5CCN(C)CC5)cc4)cc3)nc21 [PKI-402] + Cc1nc(Nc2ncc(C(=O)Nc3c(C)cccc3Cl)s2)cc(N2CCN(CCO)CC2)n1 [dasatinib] is 1.55

The recorded AUC of dose-response viability curve for CCCCCCCCCCCCc1ccc(S(=O)(=O)Nc2nncs2)cc1 [PHT-427] + Cc1nc(Nc2ncc(C(=O)Nc3c(C)cccc3Cl)s2)cc(N2CCN(CCO)CC2)n1 [dasatinib] is 2.53

====

Tested on: 769-P
assay-comment: GI50, drug alone; higher = less potent
protocol-conditions: treatment: drug alone; 5 days
Reported GI50, drug alone by item:
Give your result in µM as a bare value.

>>> experimental_result("CN(C)CCOc1ccc(-c2nc(-c3ccncc3)c(-c3ccc4c(c3)CC/C4=N/O)[nH]2)cc1")
8.71
>>> experimental_result("C#Cc1cccc(Nc2ncnc3cc(OCCOC)c(OCCO)cc23)c1.Cl [OSI-420 (Desmethyl Erlotinib)]")
3.59
>>> experimental_result("CC[C@@H]1C(=O)N(C)c2cnc(Nc3ccc(C(=O)NC4CCN(C)CC4)cc3OC)nc2N1C1CCCC1 [BI 2536]")
0.12

The recorded GI50, drug alone for Cc1cc(Nc2cc(N3CCN(C)CC3)nc(Sc3ccc(NC(=O)C4CC4)cc3)n2)n[nH]1 [VX-680 (MK-0457, Tozasertib)] is 2.93

====

Reported minimum viability across doses by item:
Test system: TK-10
assay-comment: minimum viability across doses, drug + dasatinib, relative to DMSO (fraction); higher = less growth inhibition
protocol-conditions: treatment: drug + dasatinib (fixed dose, not stated); 5 days
Number only, no unit.

Worked examples, 5 compounds total:
>>> experimental_result("Cn1cc(C2=C(c3cn(C4CCN(Cc5ccccn5)CC4)c4ccccc34)C(=O)NC2=O)c2ccccc21 + Cc1nc(Nc2ncc(C(=O)Nc3c(C)cccc3Cl)s2)cc(N2CCN(CCO)CC2)n1")
0.667
>>> experimental_result("COc1cc2ncnc(Nc3cccc(Br)c3)c2cc1OC.Cl + Cc1nc(Nc2ncc(C(=O)Nc3c(C)cccc3Cl)s2)cc(N2CCN(CCO)CC2)n1")
0.124
>>> experimental_result("O=C1NC(=O)/C(=C/c2ccc3c(c2)OC(F)(F)O3)S1 + Cc1nc(Nc2ncc(C(=O)Nc3c(C)cccc3Cl)s2)cc(N2CCN(CCO)CC2)n1")
0.655
>>> experimental_result("CNC(=O)c1nn(C)c2c1C(C)(C)Cc1cnc(Nc3ccc(N4CCN(C)CC4)cc3)nc1-2 + Cc1nc(Nc2ncc(C(=O)Nc3c(C)cccc3Cl)s2)cc(N2CCN(CCO)CC2)n1")
0.189
>>> experimental_result("O=C1NC(=O)C(c2ccccc2[N+](=O)[O-])=C1Nc1ccc(O)c(Cl)c1 + Cc1nc(Nc2ncc(C(=O)Nc3c(C)cccc3Cl)s2)cc(N2CCN(CCO)CC2)n1")
0.646

The recorded minimum viability across doses for CN(c1ncccc1CNc1nc(Nc2ccc3c(c2)CC(=O)N3)ncc1C(F)(F)F)S(C)(=O)=O.O=S(=O)(O)c1ccccc1 + Cc1nc(Nc2ncc(C(=O)Nc3c(C)cccc3Cl)s2)cc(N2CCN(CCO)CC2)n1 is 0.15

The recorded minimum viability across doses for O=C(Cc1ccc(-c2ccc(OCCN3CCOCC3)cc2)cn1)NCc1ccccc1 [KX2-391] + Cc1nc(Nc2ncc(C(=O)Nc3c(C)cccc3Cl)s2)cc(N2CCN(CCO)CC2)n1 is 0.243

The recorded minimum viability across doses for C[C@@H]1CN(CC(=O)Nc2ccc3c(c2)Cc2cccc(-c4cc(=O)cc(N5CCOCC5)o4)c2S3)C[C@H](C)O1 + Cc1nc(Nc2ncc(C(=O)Nc3c(C)cccc3Cl)s2)cc(N2CCN(CCO)CC2)n1 is 0.589

The recorded minimum viability across doses for Cc1nc(Nc2ncc(C(=O)Nc3c(C)cccc3Cl)s2)cc(N2CCN(CCO)CC2)n1 + Cc1nc(Nc2ncc(C(=O)Nc3c(C)cccc3Cl)s2)cc(N2CCN(CCO)CC2)n1 is 0.0619
